species on record: Mus musculus; experiment: Sedative activity relative with respect to clozapine.; assay type: functional
MEASUREMENT_NAME: Relative activity

{"MOLECULE": "CN(C)CCOC1=Nc2ccccc2/C(=C/C#N)c2ccccc21", "MEASUREMENT_NAME": "Relative activity", "QUALIFIER_SYMBOL": "=", "VALUE": 0.14}
{"MOLECULE": "CC1CN(C2=Nc3ccccc3/C(=C/C#N)c3ccccc32)CCN1C (stereo not drawn)", "MEASUREMENT_NAME": "Relative activity", "QUALIFIER_SYMBOL": "=", "VALUE": 0.59}
{"MOLECULE": "N#C/C=C1/c2ccccc2N=C(N2CCC(O)CC2)c2ccccc21", "MEASUREMENT_NAME": "Relative activity", "QUALIFIER_SYMBOL": "<", "VALUE": 0.1}
{"MOLECULE": "N#C/C=C1/c2ccccc2N=C(N2CCOC(CO)C2)c2ccccc21 (stereo not drawn)", "MEASUREMENT_NAME": "Relative activity", "QUALIFIER_SYMBOL": "<", "VALUE": 0.1}
{"MOLECULE": "CC1CN(C)CCN1C1=Nc2ccccc2/C(=C/C#N)c2ccccc21 (stereo not drawn)", "MEASUREMENT_NAME": "Relative activity", "QUALIFIER_SYMBOL": "=", "VALUE": 0.22}
{"MOLECULE": "CN1CCN(C2=Nc3ccc(Cl)cc3/C(=C/C#N)c3ccccc32)CC1", "MEASUREMENT_NAME": "Relative activity", "QUALIFIER_SYMBOL": "=", "VALUE": 0.19}
{"MOLECULE": "CN(C)CCN(C)C1=Nc2ccccc2/C(=C/C#N)c2ccccc21", "MEASUREMENT_NAME": "Relative activity", "QUALIFIER_SYMBOL": "=", "VALUE": 0.32}
{"MOLECULE": "CN1CCC(N(C)C2=Nc3ccccc3/C(=C/C#N)c3ccccc32)CC1", "MEASUREMENT_NAME": "Relative activity", "QUALIFIER_SYMBOL": "=", "VALUE": 0.35}
{"MOLECULE": "Cc1ccc2c(c1)N=C(N1CCN(C)CC1)c1ccccc1C2=CC#N", "MEASUREMENT_NAME": "Relative activity", "QUALIFIER_SYMBOL": "=", "VALUE": 5.9}
{"MOLECULE": "CCN1CCN(C2=Nc3ccccc3/C(=C/C#N)c3ccccc32)CC1", "MEASUREMENT_NAME": "Relative activity", "QUALIFIER_SYMBOL": "=", "VALUE": 1.7}
{"MOLECULE": "CC1CCN(C2=Nc3ccccc3/C(=C/C#N)c3ccccc32)CC1", "MEASUREMENT_NAME": "Relative activity", "QUALIFIER_SYMBOL": "=", "VALUE": 0.07}
{"MOLECULE": "N#C/C=C1/c2ccccc2N=C(NCCN)c2ccccc21", "MEASUREMENT_NAME": "Relative activity", "QUALIFIER_SYMBOL": "<", "VALUE": 0.04}
{"MOLECULE": "CN1CCCN(C2=Nc3ccccc3/C(=C/C#N)c3ccccc32)CC1", "MEASUREMENT_NAME": "Relative activity", "QUALIFIER_SYMBOL": "<", "VALUE": 0.22}
{"MOLECULE": "CCN1CCCC1CNC1=Nc2ccccc2/C(=C/C#N)c2ccccc21 (stereo not drawn)", "MEASUREMENT_NAME": "Relative activity", "QUALIFIER_SYMBOL": "=", "VALUE": 0.28}
{"MOLECULE": "C[N+]1([O-])CCN(C2=Nc3ccccc3C(=CC#N)c3ccccc32)CC1", "MEASUREMENT_NAME": "Relative activity", "QUALIFIER_SYMBOL": "=", "VALUE": 0.33}
{"MOLECULE": "CN1CCN(C2=Nc3cc(Cl)ccc3Nc3ccccc32)CC1 [CLOZAPINE]", "MEASUREMENT_NAME": "Relative activity", "QUALIFIER_SYMBOL": "=", "VALUE": 1}
{"MOLECULE": "C[N+]1([O-])CCN(C2=Nc3ccccc3/C(=C/C#N)c3ccccc32)CC1", "MEASUREMENT_NAME": "Relative activity", "QUALIFIER_SYMBOL": "=", "VALUE": 0.26}
{"MOLECULE": "CN1CCC(OC2=Nc3ccccc3/C(=C/C#N)c3ccccc32)CC1", "MEASUREMENT_NAME": "Relative activity", "QUALIFIER_SYMBOL": "<", "VALUE": 0.22}
